System: cultured human mast cells
Assay: Degranulation inhibition test using cultured human mast cells (IgE cross-linking, β-Hexosaminidase release)
Format: cell-based
Conditions: Mast cell; Tables 1-x, compounds A; cultured human mast cells; read-out: human degranulation ave. IC50
Where a name gives a salt, the structure may show the parent alone.
# reported IC50; entries follow

In the examples that follow, each entry is paired with its recorded IC50.
Cc1ccnc(Nc2cccc(-c3cnc(N4CCC(CC(N)=O)CC4)s3)n2)c1	0.1 to 1 µM
Cc1ccnc(Nc2cccc(-c3cnc(N4CCC(OCC(=O)O)CC4)s3)n2)c1 [Compound A-594, dihydrochloride]	> 1 µM

Field: next molecule
Exercise: Please report IC50 with cultured human mast cells for item Cc1ccnc(Nc2cccc(-c3cnc(N(C)c4ccc(CC(=O)O)cc4)s3)n2)c1 [Compound A-617, dihydrochloride] .
Solution: > 1 µM

These measurements were taken from patent US7803801B2.
